# credit: PubChem BioAssay AID518

Target: Alkaline phosphatase, tissue-nonspecific isozyme (Homo sapiens)
Assay: inhibition of tissue-nonspecific alkaline phosphatase – biochemical, luminescent (AID 518);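 note: plate controls were vehicle for no effect and reference inhibitor for full effect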
Conditions: purified TNAP enzyme, luminescent substrate readout; at 20 µM; active compounds read high
Hit rate of the full screen: of about 64,000 compounds, about 55 (0.09%) were called active. Not all results are given here.
PARAMETER_MEASURED: inhibition (%)

compound="CCC1(c2ccc(F)cc2)NC(=O)N(CC(=O)c2ccc[nH]2)C1=O (centres undefined)" uom=% result_number=11.1
compound=COc1ccc2c(=O)c3c(=O)n(Cc4ccco4)c(-c4ccc(C)cc4)nc3oc2c1 uom=% result_number=9.7
compound=c1ccc(CCc2nn3c(Cn4cnc5ccccc54)nnc3s2)cc1 uom=% result_number=10.8
compound=Cc1cc(C(=O)CSc2nncs2)c(C)n1-c1c(C)n(C)n(-c2ccccc2)c1=O uom=% result_number=6.8
compound=CCOc1cccc(-c2nnc3sc(-c4cc(OC)c(OC)cc4OC)nn23)c1 uom=% result_number=8.9
compound="O=C(C1CCCN(S(=O)(=O)c2cccc3cccnc23)C1)N1CCN(c2ccc(F)cc2)CC1 (centres undefined)" uom=% result_number=14.6
compound=CN(CC(=O)NCCC1=CCCCC1)S(=O)(=O)c1ccc2c(c1)CCC(=O)N2 uom=% result_number=6.5
compound=O=C(Nc1cccnc1)c1c(O)c2cccc3c2n(c1=O)CC3 uom=% result_number=5.4
compound=O=C(c1ccc(CNS(=O)(=O)c2cccc(C(F)(F)F)c2)cc1)N1CCOCC1 uom=% result_number=19.5
compound=Cc1csc(NC(=O)CSc2nnc(-c3ccncc3)o2)n1 uom=% result_number=13.3
compound=CCOc1ccc(S(=O)(=O)Nc2nc3ccccc3nc2N2CCN(C)CC2)cc1 uom=% result_number=0.5
compound=O=C(CSc1nnc2scc(-c3ccccc3)n12)N1CCCc2ccccc21 uom=% result_number=5.3
compound="CCc1ccc2[nH]c(=O)c(C(c3nnnn3CC3CCCO3)N3CCCc4ccccc43)cc2c1 (centres undefined)" uom=% result_number=19.5
compound=COc1ccc(N2CCN(CC(=O)Nc3cc4c(cc3C(C)=O)OCO4)CC2)cc1 uom=% result_number=3.8
compound=C/C(N)=C(/C#N)C(=O)CSc1ncnc2ccccc12 uom=% result_number=5.5
compound=Cc1onc(-c2c(F)cccc2Cl)c1C(=O)Nc1cccc2nsnc12 uom=% result_number=13.1
compound=O=C(NCCc1csc(-c2ccccc2)n1)c1cccs1 uom=% result_number=9.4
compound=Cc1cc(NC(=O)c2cccc(S(=O)(=O)N3CCCCCC3)c2)n(-c2ccccn2)n1 uom=% result_number=-5.7
compound=O=C(Nc1ccccc1)NC1(C(=O)NCc2ccc3c(c2)OCO3)CCCCC1 uom=% result_number=-0.2
compound=Cc1ccc(NC(=O)Cn2cnc3c(=O)n(C)c(=O)n(C)c32)c(C)c1 uom=% result_number=3.9
compound=CC(=O)N1CCC(N(C(=O)Nc2ccc(C)c(C)c2)C2CCCC2)CC1 uom=% result_number=6.3
compound=Cc1ccc(-n2c(SCC(N)=O)nnc2-c2ccccn2)cc1 uom=% result_number=5.9
compound=COc1ccccc1N1CCN(C(=O)CSc2ccc3c(C)cc(C)nc3n2)CC1 uom=% result_number=10.2
compound="COc1cc(C2C3CN(C)CC=C3C(C#N)=C(N)C2(C#N)C#N)ccc1OC(C)C (centres undefined)" uom=% result_number=-0.1
compound=CSc1nc2c(c(=O)[nH]c(=O)n2C)n1C/C=C(\C)Cl uom=% result_number=11.8
compound=COc1ccc(-c2ccc(-c3noc(-c4ccccc4C)n3)c(OC)n2)cc1 uom=% result_number=6.5
compound="c1ccc(N2CCN(C3CCSC3)CC2)cc1 (centres undefined)" uom=% result_number=13.5
compound=CCc1ccc(Nc2cc(=O)n(C3CCCCC3)c(=O)[nH]2)cc1 uom=% result_number=11.3
compound=CN(c1cccc(NC(=O)c2ccccc2N(C)S(C)(=O)=O)c1)S(C)(=O)=O uom=% result_number=14.3
compound=CCOc1ccc(CNc2ccc3c(c2)ncn3C)cc1 uom=% result_number=16.9
compound="Cc1cc2c(c(=O)n1CCN(C)C)C(c1ccccc1Br)C(C#N)=C(N)O2 (centres undefined)" uom=% result_number=9.3
compound=COc1cccc(C(=O)Nc2ccccc2N2CCCC2)c1 uom=% result_number=9.9
compound=CC(=O)c1cccc(NC(=O)c2cccc(S(=O)(=O)N(C)C)c2)c1 uom=% result_number=6.3
compound=CCc1c(C)nc2ncnn2c1N1CCC(C(=O)NCc2cccc(OC)c2)CC1 uom=% result_number=13
compound=COc1ccc(CN(Cc2cc3cc4c(cc3[nH]c2=O)OCO4)C(=O)NC2CCCCC2)cc1 uom=% result_number=6.8
compound="Cc1cc(C(=O)NC(C)c2ccncc2)cs1 (centres undefined)" uom=% result_number=3.5
compound=Cc1cc(C(=O)OCC(=O)Nc2nc(-c3ccccc3)cs2)c(C)o1 uom=% result_number=1.4
compound="O=C1C2C3C=CC(C3)C2C(=O)N1c1n[nH]c(CCc2ccccc2)n1 (centres undefined)" uom=% result_number=36.8
compound=CC(C)Sc1nnc(NC(=O)C2CC2)s1 uom=% result_number=-0.5
compound=CN(C)/C=N/c1nc2ccc3c(c2s1)CCCC3 uom=% result_number=12.3
compound="O=C1CC(c2ccco2)Cc2nc(N3CCN(Cc4ccc5c(c4)OCO5)CC3)ncc21 (centres undefined)" uom=% result_number=10.2
compound=COc1ccccc1-c1nc(SCC(=O)O)n[nH]1 uom=% result_number=4.7
compound="Cc1ccc(NC(=O)C2CCCN2S(=O)(=O)c2ccc3c(c2)CCC(=O)N3)cc1Cl (centres undefined)" uom=% result_number=9
compound=COc1cccc(NC(=O)c2ccc3c(c2)N(CC(=O)N2CCCCC2)C(=O)C(C)(C)O3)c1 uom=% result_number=1.3
